Below: a set of entries, each annotated with reported melting point.

{"Molecule": "O=c1ccc2cc(S(=O)(=O)NCc3cn(Cc4cccc(Oc5ccccc5)c4)nn3)ccc2o1 [11d]", "melting point": "144 to 146 °C"}
{"Molecule": "Cc1ccc(S(=O)(=O)NCc2cn(Cc3cccc(C#N)c3)nn2)cc1 [11j]", "melting point": "145 to 147 °C"}
{"Molecule": "C#CCNS(=O)(=O)c1ccc2oc(=O)ccc2c1", "melting point": "193 to 196 °C"}

----------
- Test system: MGC-803 (human gastric cancer cell line)
- Test method notes: MTT antiproliferative assay, MGC-803
- Assay type: cell-based
- Settings: exposure for 48 h, means ± SDs of three independent experiments

{"Compound": "C#CCNS(=O)(=O)c1ccc2oc(=O)ccc2c1", "Limit operator": ">", "IC50 [µM]": 100}
{"Compound": "O=c1[nH]cc(F)c(=O)[nH]1 [5-Fu, 5-Fluorouracil, reference compound]", "Limit operator": "=", "IC50 [µM]": 15.6}
{"Compound": "CC(C)(C)c1ccc(S(=O)(=O)NCc2cn(Cc3cccc(Oc4ccccc4)c3)nn2)cc1 [11g]", "Limit operator": ">", "IC50 [µM]": 100}
{"Compound": "Cc1ccc(S(=O)(=O)NCc2cn(Cc3cccc(C)c3)nn2)cc1 [11k]", "Limit operator": "=", "IC50 [µM]": 75.8}
{"Compound": "Cc1ccc(S(=O)(=O)NCc2cn(Cc3cccc(Oc4ccccc4)c3)nn2)cc1 [11f]", "Limit operator": "=", "IC50 [µM]": 13.7}
